Data provenance: PubChem BioAssay

# procedure details: OD615 S. cerevisiae growth inhibition, permissive medium, pilot counter-assay, permissive growth control for S. cerevisiae lifespan shortening project (AID 705)
# study conditions: OD615, 24 h, at 10 µM, stronger effect = higher value
Give measured growth inhibition for each item. Keep answers brief.
Write it as a number; the unit % goes unstated.

If you can, please state the reported growth inhibition value of "Cn1c(CCNC(=O)C(C)(C)C)nc2ccccc21" .
-4.42

Also "CCCSc1nc(N)c2c3c(sc2n1)CN(C)CC3" , if possible.
-25

Could you do the same for "Clc1ccccc1N1CCN(c2ncnc3nc[nH]c23)CC1" , please?
7.42

How about "Cc1c(C(=O)N(C)Cc2ccccc2)oc2ccc(S(=O)(=O)N3CCCC3)cc12" ?
-18.8

Also need CSc1nc2ccc(NC(=O)C3CC(=O)N(Cc4ccco4)C3)cc2s1 (configuration not stated) , thanks.
4.86

Same again, this time with CC1CN(C(=O)c2ccccc2C(=O)c2ncc[nH]2)CC(C)O1 (configuration not stated)
-19.6

What would you report for CCOC(=O)c1c(C)n(C)c2ccc(OCC(O)CN3CCCCCC3)cc12 (configuration not stated) ?
-0.855

Cool, now "Cc1cc(Nc2ccc(F)cc2)n2nc(C)nc2n1"
-2.01

Then "Cn1c(=O)[nH]c(=O)c2c1nc(SCC(=O)Nc1ccccc1)n2Cc1ccccc1" ?
-4.58

// repeat for "CCN(CC)S(=O)(=O)c1ccc2oc(C(=O)NCc3ccc(F)cc3)c(C)c2c1" and report
-10.9

Would you mind doing "COc1cc(Nc2cc(C)nc3nc(C)nn23)cc(OC)c1OC" as well?
2.3

Same again, this time with "Cc1nc(CNS(=O)(=O)c2ccccc2F)cs1"
-2.92

How about this molecule: "COc1cc2[nH]c(=O)n(CCCC(=O)N3CC=C(c4ccccc4)CC3)c(=O)c2cc1OC"
-11.3

Same for N#CCCN1CCN(S(=O)(=O)c2ccc(S(=O)(=O)NCC3CCCO3)cc2)CC1 (configuration not stated)
-1.2

Try this molecule too: Cc1cc2ncn(CC(O)COC3CCCCC3)c2cc1C (configuration not stated)
-8.15

Similarly, "CCN1C=C(C(=O)OC)C(c2cccc(C)c2)C(C(=O)OC)=C1" ?
-1.2

# repeat for CCOC(=O)CN1CC23C=CC(O2)C(C(=O)NCc2ccccc2OC)C3C1=O (configuration not stated)
1.34
